test system: SW-620; assay: NCI tumour cell line growth inhibition, 48 h
Calls of active or inactive are those of the source. No stated cut-off is given here; in the data, active = GI50 up to about 1.1 µM and inactive = higher. Non-standard residues stand in square brackets, D forms with d. Residues, ends and D or L forms follow the SMILES beside them. ξ: configuration not given here. *: point of attachment. X18 = COC1=CC(=O)N(C(=O)C(O*)C(C)C)C1Cc1ccccc1; ξNMe2Val = CC(C)C(C(=O)*)N(C)C; NMeV = CN[CH](C(=O)O)C(C)C
measurementName: GI50

Example results:
CC1=Nc2c(ccc3c2C(=O)c2ccccc2C3=O)NC(c2ccncc2)C1 (stereo not drawn)	52.5 µM (inactive)
O=C(CN1CCN(c2ccccn2)CC1)N1CCCn2c1nc1ccccc1c2=O	> 100 µM (inactive)
Brc1c2nc3ccccc3nc2n2ccc3ccccc3c12	> 100 µM (inactive)

Input: State its GI50 for this molecule: Nc1nc2c(c(=O)[nH]1)C(c1ccccc1)CC(=O)N2 (stereo not drawn)
Output: > 100 µM (inactive)

Input: Provide GI50 value for the following molecule: "CCOc1ccc(-n2c(=O)n3c(Nc4ccc(Cl)cc4)nc4c(c(=O)n(C)c(=O)n4C)n3c2=O)cc1"
Output: 33.9 µM (inactive)

Input: Fill in GI50 for record COC(=O)C1CCCC2(C1)OCCO2 (stereo not drawn)
Output: > 100 µM (inactive)

Input: Name the recorded GI50 of the item CN/C(=N\CCSCc1nc[nH]c1C)NC#N [CIMETIDINE] in your answer.
Output: > 100 µM (inactive)

Input: Please supply the value of reported GI50 for the item c1cc2c(cc1C1OCC3C(c4ccc5c(c4)OCO5)OCC13)OCO2 (stereo not drawn)
Output: > 100 µM (inactive)

Input: Respond only with GI50 recorded for "CCC/C(Cl)=N\OC(=O)Nc1cccc(C(F)(F)F)c1"
Output: 2.81 µM (inactive)

Input: # return recorded GI50 for entry COc1ncn(C2C=C(CO)C(O)C2O)c(=O)n1 (stereo not drawn)
Output: < 0.01 µM (active)

Input: Supply GI50 value. Item: COC1=CC(=O)N(C(=O)C(OC(=O)C2CCCN2C(=O)C2CCCN2C(=O)C(C(C)C)N(C)C(=O)C(NC(=O)C(C(C)C)N(C)C)C(C)C)C(C)C)C1Cc1ccccc1 (stereo not drawn) (ξNMe2Val-V[NMeV]PP-X18; configuration not given here)
Output: 0.000469 µM (active)

Input: Could you please provide reported GI50 for CCOC(=O)[C@@]12C3C=CC(CC3)[C@]1(C(=O)c1ccccc1)C(=O)C(=O)N2c1ccccc1 (stereo partly drawn) ? Thanks!
Output: > 100 µM (inactive)

Input: Supply reported GI50 belonging to this molecule: "Cc1cc2nc(N3C(=O)/C(=C/c4ccccc4S)N=C3c3ccccc3)sc2cc1C"
Output: 37.5 µM (inactive)

Input: Provide GI50 value for the following molecule: O=C(CC1C(=O)Nc2ccccc2S1(=O)=O)Nc1ccc(Cl)cc1 (stereo not drawn)
Output: 31.3 µM (inactive)

Input: Give the value of GI50 reported for the following: "O=C(CC(=O)N(C(=O)c1ccccc1)c1ccc(Cl)cc1)N/N=C\c1ccccc1O"
Output: > 100 µM (inactive)

Input: Note down GI50 recorded for [O-][S+]1CC[S+]([O-])CC[S+]([O-])CC1 (stereo not drawn)
Output: > 100 µM (inactive)

Input: Tell us which GI50 value is on record for "O=C(N/N=C/c1cccc(F)c1)c1ccncc1"
Output: > 100 µM (inactive)

Input: Quick one: give measured GI50 for "CN(C)/C(=N/C(=O)Nc1ccccc1)SCc1ccccc1"
Output: > 100 µM (inactive)

Input: Provide one value: measured GI50 of "Cn1c(=O)cc(NCc2ccc(Cl)cc2)[nH]c1=O"
Output: > 100 µM (inactive)

Input: // fetch GI50 given entry "[O-][N+]1=NC(c2ccccc2)=C1c1ccccc1"
Output: > 50 µM (inactive)

Input: Answer with reported GI50 of "O=c1oc2ccc(Cl)cc2cc1-c1cn2ccccc2n1"
Output: 85.5 µM (inactive)

Input: Give the measured GI50 for Cc1ccc(S(=O)(=O)NC2C(=O)c3ccccc3C(=O)C2n2cnc3ccccc32)cc1 (stereo not drawn)
Output: 25.3 µM (inactive)

* * *

system: SK-MEL-5; assay: NCI tumour cell line growth inhibition, 48 h
Active and inactive are the calls of the source. Rule as the data show it: active = GI50 up to about 1.1 µM and inactive = higher.
measurementName: GI50

Please review the following examples before continuing.
OCC(O)COc1c(Cl)cc(Cl)cc1Cl (stereo unspecified)	> 100 µM (inactive)
O=C(NC1CC1)c1c(O)[nH]c(=S)[nH]c1=O	> 100 µM (inactive)
O=C1NC(=O)C2(CCc3ccc(N(CCCl)CCCl)cc32)N1 (stereo unspecified)	13.5 µM (inactive)
O=C1/C(=C\c2ccc(Cl)cc2Cl)Sc2scc(-c3cccc([N+](=O)[O-])c3)[n+]21	2.09 µM (inactive)
C1=CC2=CC=CC3c4nc5ccc6ccccc6c5nc4C(=C1)C23 (stereo unspecified)	> 100 µM (inactive)

Now let's try a different one.
Input: Look up and report GI50, with SK-MEL-5 as system, for "O=C1/C(=C/c2ccccc2)CCCC/C1=C\c1ccccc1"
Output: 24.1 µM (inactive)

* * *

test system: RXF 393; assay: NCI tumour cell line growth inhibition, 48 h
Active and inactive are the calls of the source. Rule as the data show it: active = GI50 up to about 1.1 µM and inactive = higher.
Some molecules, each annotated with its measured GI50.

Look over these answered cases.
O=c1[nH]nc(Nc2ccc(Cl)cc2)c2nnn(C3CCCCC3)c12	30.4 µM (inactive)
N#CC(=C1CCN(CCCC(=O)c2ccc(F)cc2)CC1)c1ccccc1	> 100 µM (inactive)
O=C1C[C@@H](c2ccccc2)O[C@@H](c2ccccc2)C1	> 100 µM (inactive)
CC(=O)C1=CC=C/C1=N\Nc1ccccc1	11.6 µM (inactive)
Cc1ccc(S(=O)(=O)N/N=C(/CC(=O)c2c(C)[n+]([O-])c3ccccc3[n+]2[O-])C(=O)Nc2ccc(C)c(C)c2)cc1	> 100 µM (inactive)

Input: Report GI50 for "C=CCN(c1cc(OCc2ccccc2)c2c(c(C)cn2S(=O)(=O)c2ccc([N+](=O)[O-])cc2)c1[N+](=O)[O-])S(C)(=O)=O"
Output: > 100 µM (inactive)

Input: Consider the molecule "O=[N+]([O-])c1ccc2nc(O)c(/C=C(\O)c3ccccc3)nc2c1" . State its measured GI50.
Output: 20.6 µM (inactive)

Input: Please give measured GI50 of the following entry: "O=C1COc2ccc([N+](=O)[O-])cc2C(=O)C1"
Output: > 10 µM (inactive)

Input: For the molecule CCCOc1nc(N)c2cnn(C3CCCCO3)c2n1 (stereo not given) , report GI50.
Output: > 100 µM (inactive)

Input: Answer with reported GI50 of "N#CCCN(CCCN(C(=O)Nc1ccc(NC(=O)N(CCCN(CCC#N)C(N)=O)c2ccccc2)cc1)c1ccccc1)C(N)=O"
Output: > 100 µM (inactive)

* * *

This listing pairs molecules with measured GI50.
tested on: UACC-257; experiment: NCI tumour cell line growth inhibition, 48 h
Active and inactive are the calls of the source. Cut-off read from the data, not from the text of the source: active = GI50 up to about 1.1 µM and inactive = higher.

Worked cases, GI50 given:
COC(OC)C1OCC(n2cc(F)c(=O)[nH]c2=O)C1O (centres undefined)	> 100 µM (inactive)
CCn1c2nc(=O)n(CCCCCCCCSC(c3ccccc3)(c3ccccc3)c3ccccc3)c(=O)c-2nc2ccccc21	3.73 µM (inactive)
CCCCNC(=O)C1=C(C)NC(C)=C(C(=O)NCCCC)C1	> 100 µM (inactive)
N#C/C(=C1\OC(=N)C(c2ccccc2)C1=O)c1ccccc1 (centres undefined)	23 µM (inactive)
C=C1CN2CCc3c([nH]c4ccccc34)C2CC1CC(=O)N(C)C (centres undefined)	> 309 µM (inactive)
Cc1ccc(NC(=O)c2cc(S(=O)(=O)Nc3n[nH]c(=O)[nH]3)c(SSc3cc(Cl)c(C(=O)Nc4ccc(C)cc4)cc3S(=O)(=O)Nc3n[nH]c(=O)[nH]3)cc2Cl)cc1	> 100 µM (inactive)
C=CCC1C(O[Si](C)(C)C(C)(C)C)C(CO[Si](C)(C)C(C)(C)C)OC1n1ccc(=O)[nH]c1=O (centres undefined)	1.68 µM (inactive)
COc1ccc(N2C(=O)CS(=O)(=O)C2c2cccc(Oc3ccccc3)c2)cc1 (centres undefined)	2.74 µM (inactive)

Input: Tell me GI50 reported for CC1(CCCO)CCCCCCCCCC(C)(CCCO)C1=O (centres undefined)
Output: > 100 µM (inactive)

* * *

test system: A549; experiment: NCI tumour cell line growth inhibition, 48 h
Activity calls are given as the source filed them. Cut-off read from the data, not from the text of the source: active = GI50 up to about 1.1 µM and inactive = higher.
// allowed return values: active, inactive

Please review the entries below; each comes with its answer.
CCC/C(Cl)=N\OC(=O)Nc1cccc(C(F)(F)F)c1	inactive
C/C(=N\NC(=S)N1CCC1)c1ccccn1	active
CCc1c(OC(C)=O)c2c(NC3OCC(OC(C)=O)C(OC(C)=O)C3OC(C)=O)nc(SC)nc2oc1=O (stereo not given)	inactive
COc1ccc(CCNC(=O)c2ccccc2C2c3ccc(OCc4ccccc4)cc3Oc3cc(OCc4ccccc4)ccc32)cc1OC	inactive
COc1ncn(C2C=C(CO)C(O)C2O)c(=O)n1 (stereo not given)	inactive
O=C/C1=C/C2=Cc3ccccc3C=C(/C=C(/C=O)C1)C2	inactive

Input: Recorded test outcome, item O=C1CC(c2n[nH]c3ccccc23)C(=O)N1c1ccccc1 (stereo not given)
Output: inactive

Input: Write down the call the test reported for this molecule. Item: CC1C(O)[C@@]2(OC[C@@]34C(=O)CC5(O)[C@H](CCC6Cc7nc8c(nc7C[C@]65C)CC5CC[C@@H]6C7=C[C@H]9O[C@@]%10(O[C@@](C)(CO)C[C@@H]%10O)C(C)[C@@]9(O)[C@]7(C)[C@@H](O)CC6[C@]5(C)C8)C3=CC[C@H]4C2C)OC1(C)C (stereo not given in full)
Output: active

Input: Can you look up the reported call for COC1C=COC2(C)Oc3c(C)c(O)c4c(O)c(c(/C=N/N5CCN(N)CC5)c(O)c4c3C2=O)NC(=O)C(C)=CC=CC(C)C(O)C(C)C(O)C(C)C(OC(C)=O)C1C (stereo not given) for me?
Output: inactive

Input: Lab log entry: "O=C(NC1CC1)c1c(O)[nH]c(=S)[nH]c1=O" — outcome as called in the assay?
Output: inactive

Input: Write down the call the test reported for this molecule. Item: "C=CCN(c1cc(OCc2ccccc2)c2c(c(C)cn2S(=O)(=O)c2ccc([N+](=O)[O-])cc2)c1[N+](=O)[O-])S(C)(=O)=O"
Output: inactive

Input: For this molecule, state the assay outcome: "O=c1c2ccccc2n2nnc3ccc(NCCCNCCNCCCNc4ccc5nnn6c7ccccc7c(=O)c4c56)c1c32"
Output: active

Input: I'd appreciate the recorded outcome for "Nc1ncnc2c1ccn2CC#CCO" from this test.
Output: inactive

Input: Recorded call for COC(=O)CC1NC(=O)[C@@H]1C(C)O (stereo not given in full) ?
Output: inactive

Input: Hello, I am checking results. What call was entered for "O=S(=O)(O)c1ccc(-c2c3nc(c(-c4ccc(S(=O)(=O)O)cc4)c4ccc([nH]4)c(-c4ccc(S(=O)(=O)O)cc4)c4nc(c(-c5ccc(S(=O)(=O)O)cc5)c5ccc2[nH]5)C=C4)C=C3)cc1" ?
Output: inactive

Input: Please state the recorded outcome for this molecule: "CC(C)CN(CC#N)CC(C)C"
Output: inactive

// data source = ChEMBL document CHEMBL1201862
